B1: MYBL2 (parent)
chain: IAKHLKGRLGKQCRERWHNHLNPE

- Variants of: B1
- protocol.notes: protein stability index of a GFP-peptide fusion (GPS, HEK-293T) (PSI 1-6); higher = more stable;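 further: lentivirally expressed fusions sorted by FACS into six bins by GFP to DsRed ratio, PSI derived from sequencing read proportions per bin multiplied by bin number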
- test.settings: c terminus: a fixed tail appended
value.kind: protein stability index
Give bare numbers.

# count of solved cases: 5
mutant.label: A2N
protein stability index: 2.2
//
mutant.label: K3D
protein stability index: 2.3
//
mutant.label: L9D
protein stability index: 3.01
//
mutant.label: C13Y
protein stability index: 1.64
//
mutant.label: I1S
protein stability index: 2.17

For each entry beneath this line, provide reported protein stability index.
1. C13W
2. R8T
3. L5F
4. H20C
5. G10K
6. K11I
7. H18S

1: 2.19; 2: 1.63; 3: 1.67; 4: 2.44; 5: 1.61; 6: 1.97; 7: 1.47
